System: Brachyspira hyodysenteriae
Assay: In vitro antibacterial activity under anaerobic conditions against Treponema hyodysenteriae strain 94A002
Format: functional
Can you tell me MIC for the items I'm about to list?
Give bare numbers, in µg/mL.

Below, 4 molecules whose answers are already recorded.
{"Molecule": "CCS(=O)(=O)Cc1nc2ccccc2[n+]([O-])c1C(=O)NC", "Study system": "Brachyspira hyodysenteriae", "MIC, µg/mL": 6.25}
{"Molecule": "COC(=O)c1c(CS(=O)(=O)CCO)nc2ccccc2[n+]1[O-]", "Study system": "Brachyspira hyodysenteriae", "MIC, µg/mL": 1.56}
{"Molecule": "CC(=O)c1c(CS(=O)(=O)CCO)nc2ccccc2[n+]1[O-]", "Study system": "Brachyspira hyodysenteriae", "MIC, µg/mL": 3.12}
{"Molecule": "CCS(=O)(=O)Cc1nc2ccccc2[n+]([O-])c1C(C)=O", "Study system": "Brachyspira hyodysenteriae", "MIC, µg/mL": 0.78}

Could I get MIC for every one of these entries?
1. CC(=O)c1c(C[S+](C)[O-])nc2ccccc2[n+]1[O-] (configuration not stated)
2. CNC(=O)c1c(CS(C)(=O)=O)nc2ccccc2[n+]1[O-]
3. CS(=O)(=O)Cc1nc2ccccc2[n+]([O-])c1C(N)=O
4. COC(=O)c1c(CS(C)(=O)=O)nc2ccccc2[n+]1[O-]
5. COC(=O)N/N=C/c1c[n+]([O-])c2ccccc2[n+]1[O-]
6. CC(=O)c1c(CS(C)(=O)=O)nc2ccccc2[n+]1[O-]
7. CNC(=O)c1c(CS(=O)(=O)CCO)nc2ccccc2[n+]1[O-]

1: 6.25; 2: 3.12; 3: 6.25; 4: 1.56; 5: 0.19; 6: 0.19; 7: 12.5
